FYI, the data here is from patent EP0417840B1.

# Test system: HIV
# test-protocol: Anti-HIV assay: inhibition of the HIV-induced cytopathic effect in MT-4 cells (MTT)
# Type: cell-based
# settings: ratio of CD₅₀ to ED₅₀
# SI (selectivity index) per record follows

The cases that follow already have their SI (selectivity index) on record.
> print(dat)
                                   molecule  reported.measurement
1  CCCN1CCn2c(=S)[nH]c3cccc(c32)C1C (stereo not shown) [Compound 2]                   258
2  CC(C)=CCN1[C@H](C)Cn2c(=S)[nH]c3cccc(c32)[C@H]1C (relative stereo) [Compound 6]                  4838
3  CC(C)=CCN1CCn2c(=S)[nH]c3cccc(c32)C1C (stereo not shown) [Compound 3]                  1770

In the following, a different molecule is considered.
Give its SI (selectivity index) value. Item: CC(C)=CCN1[C@H](C)Cn2c(=S)[nH]c3cccc(c32)[C@@H]1C (relative stereo) [Compound 5]
96
